test system: brains, heart, liver, muscle, and DRG of the NHPs; experiment: Maturation of TTM-001 and TTM-002 capsids, NGS enrichment in NHP tissues; type: in vivo; conditions: NHP liver, DNA; relative to AAV9 control
Rule: 1 for Fold Enrichment relative to AAV9, Liver DNA (NHP) not less than 0.2 fold, -1 for anything less.

State whether the measured Fold Enrichment relative to AAV9, Liver DNA (NHP) reaches 0.2 fold, counting equality as reaching it, for KTSNGSGSPHSKAQNQST
-1

State whether the measured Fold Enrichment relative to AAV9, Liver DNA (NHP) reaches 0.2 fold, counting equality as reaching it, for KQGEGSGSPHSKAQNQQT
-1

State whether the measured Fold Enrichment relative to AAV9, Liver DNA (NHP) reaches 0.2 fold, counting equality as reaching it, for KTINGSGSPHSKNRDQQT
-1

State whether the measured Fold Enrichment relative to AAV9, Liver DNA (NHP) reaches 0.2 fold, counting equality as reaching it, for KTINGSGSPHSKAQRMNT
1

State whether the measured Fold Enrichment relative to AAV9, Liver DNA (NHP) reaches 0.2 fold, counting equality as reaching it, for KTINGSGSPHSKAQGILT
-1

State whether the measured Fold Enrichment relative to AAV9, Liver DNA (NHP) reaches 0.2 fold, counting equality as reaching it, for KEVQGSGSPHSKAQNQQT
-1

State whether the measured Fold Enrichment relative to AAV9, Liver DNA (NHP) reaches 0.2 fold, counting equality as reaching it, for KTINGSGSPHSKAQRDIT
1

State whether the measured Fold Enrichment relative to AAV9, Liver DNA (NHP) reaches 0.2 fold, counting equality as reaching it, for KTLNGNGSPHSKAQNLQT
-1

State whether the measured Fold Enrichment relative to AAV9, Liver DNA (NHP) reaches 0.2 fold, counting equality as reaching it, for KSELGSGSPHSKAQNQQT
1

State whether the measured Fold Enrichment relative to AAV9, Liver DNA (NHP) reaches 0.2 fold, counting equality as reaching it, for KTEQVSGSPHSKAQNQQT
-1

State whether the measured Fold Enrichment relative to AAV9, Liver DNA (NHP) reaches 0.2 fold, counting equality as reaching it, for KTINGSGSPHSKAPNLQI
1

State whether the measured Fold Enrichment relative to AAV9, Liver DNA (NHP) reaches 0.2 fold, counting equality as reaching it, for KAETGSGSPHSKAQNQQT
-1

State whether the measured Fold Enrichment relative to AAV9, Liver DNA (NHP) reaches 0.2 fold, counting equality as reaching it, for KTVIGSGSPHSKSQNQQT
-1

State whether the measured Fold Enrichment relative to AAV9, Liver DNA (NHP) reaches 0.2 fold, counting equality as reaching it, for KTINGSGSPHSKRLEQQT
1

State whether the measured Fold Enrichment relative to AAV9, Liver DNA (NHP) reaches 0.2 fold, counting equality as reaching it, for KTINGSGSPHSKAQVPAT
1

State whether the measured Fold Enrichment relative to AAV9, Liver DNA (NHP) reaches 0.2 fold, counting equality as reaching it, for KTDRNSGSPHSKAQNQQT
1

State whether the measured Fold Enrichment relative to AAV9, Liver DNA (NHP) reaches 0.2 fold, counting equality as reaching it, for KTINGSGSPHSKAQERST
1

State whether the measured Fold Enrichment relative to AAV9, Liver DNA (NHP) reaches 0.2 fold, counting equality as reaching it, for KTINGSGSPHSKLKSQQT
1

State whether the measured Fold Enrichment relative to AAV9, Liver DNA (NHP) reaches 0.2 fold, counting equality as reaching it, for KGVLGSGSPHSKAQNQQT
-1

State whether the measured Fold Enrichment relative to AAV9, Liver DNA (NHP) reaches 0.2 fold, counting equality as reaching it, for KNSIGSGSPHSKAQNQQT
-1

State whether the measured Fold Enrichment relative to AAV9, Liver DNA (NHP) reaches 0.2 fold, counting equality as reaching it, for KAINGSGSPHSKAQSQQI
-1

State whether the measured Fold Enrichment relative to AAV9, Liver DNA (NHP) reaches 0.2 fold, counting equality as reaching it, for KTREISGSPHSKAQNQQT
1

State whether the measured Fold Enrichment relative to AAV9, Liver DNA (NHP) reaches 0.2 fold, counting equality as reaching it, for KTINGSGSPHSKAQDRQS
-1

State whether the measured Fold Enrichment relative to AAV9, Liver DNA (NHP) reaches 0.2 fold, counting equality as reaching it, for KTINGSGSPHSKAQPART
1

State whether the measured Fold Enrichment relative to AAV9, Liver DNA (NHP) reaches 0.2 fold, counting equality as reaching it, for KTELRSGSPHSKAQNQQT
1

Just for reference, patent US20260250318A1 is where these values come from.
